Overview of reported pKd across a group of molecules:
assay-system: ShhN protein (Homo sapiens)
Construct: auto-cleavage of full length Shh into an active 20 kD N-terminal fragment (ShhN); purchased R&D Systems
experiment-summary: Surface Plasmon Resonance (SPR) protein binding assay on immobilized ShhN
protocol-conditions: SPR, Biacore T100, ShhN immobilized on CM4 chip, 25° C., compound 0.78 μM-25 μM; read-out: KD
pKd: −log10 of the molar value.
recorded-metric: pKd

{"substance-smiles": "O=C(C[C@@H]1C[C@H](O)[C@@H](O)CCC(=O)O[C@H](c2ccccc2)CNC1=O)NCc1ccc(Cl)cc1", "assay-system": "ShhN protein (Homo sapiens)", "recorded-metric": "pKd", "assay-value": "4.00 to 6.00"}
{"substance-smiles": "C[C@H]1[C@@H](c2ccccc2)OC(=O)CC[C@H](O)[C@@H](O)C[C@@H](CC(=O)NCc2ccc(Cl)cc2)C(=O)N1C", "assay-system": "ShhN protein (Homo sapiens)", "recorded-metric": "pKd", "assay-value": "4.00 to 6.00"}
{"substance-smiles": "C[C@H]1[C@@H](c2ccccc2)OC(=O)CC/C=C/C[C@@H](CC(=O)NCCCC(F)(F)F)C(=O)N1C", "assay-system": "ShhN protein (Homo sapiens)", "recorded-metric": "pKd", "assay-value": "< 4.00"}
{"substance-smiles": "CCN(CC)C(=O)C[C@@H]1C/C=C/CCC(=O)O[C@H](c2ccccc2)CNC1=O", "assay-system": "ShhN protein (Homo sapiens)", "recorded-metric": "pKd", "assay-value": "> 7.00"}
{"substance-smiles": "O=C(C[C@@H]1C[C@@H]2O[C@H]2CCC(=O)O[C@H](c2ccccc2)CNC1=O)NCc1ccc(Cl)cc1", "assay-system": "ShhN protein (Homo sapiens)", "recorded-metric": "pKd", "assay-value": "6.00 to 7.00"}
{"substance-smiles": "O=C(O)C[C@@H]1C/C=C/CCC(=O)O[C@H](c2ccccc2)CNC1=O", "assay-system": "ShhN protein (Homo sapiens)", "recorded-metric": "pKd", "assay-value": "< 4.00"}
{"substance-smiles": "O=C1CC/C=C/CCC(=O)OC[C@@H](c2ccccc2)N1", "assay-system": "ShhN protein (Homo sapiens)", "recorded-metric": "pKd", "assay-value": "> 7.00"}
{"substance-smiles": "CCCC[C@@H]1COC(=O)[C@H](CC(=O)NCc2ccc(Cl)cc2)C/C=C/CCC(=O)N1", "assay-system": "ShhN protein (Homo sapiens)", "recorded-metric": "pKd", "assay-value": "4.00 to 6.00"}

====

System: C3H10T1/2
experiment-summary: Induction of osteogenic differentiation (modulation of osteoblast differentiation)
protocol-conditions: Mus musculus, C3H 10T1/2, read-out: IC50 (nM) C3H10T1/2
We begin with a simple list: items and their reported IC50.

{"substance-smiles": "C[C@@H]1C/C=C/CC(F)(F)C(=O)N[C@H](c2ccccc2)COC1=O", "assay-system": "C3H10T1/2", "IC50": "> 100000 nM"}
{"substance-smiles": "O=C(C[C@@H]1C/C=C/CCC(=O)O[C@H](c2ccccc2)CNC1=O)NCCCC(F)(F)F", "assay-system": "C3H10T1/2", "IC50": "< 100 nM"}
{"substance-smiles": "O=C1CC/C=C/C[C@@H](CC(=O)N2CCCCC2)C(=O)NC[C@@H](c2ccccc2)O1", "assay-system": "C3H10T1/2", "IC50": "< 100 nM"}
{"substance-smiles": "O=C(C[C@@H]1C/C=C/CCC(=O)N[C@@H](c2ccccc2)COC1=O)NCc1ccc(Cl)cc1", "assay-system": "C3H10T1/2", "IC50": "100 to 1000 nM"}
{"substance-smiles": "C[C@@H]1C/C=C/C[C@H](C)C(=O)N[C@H](c2ccccc2)COC1=O", "assay-system": "C3H10T1/2", "IC50": "100 to 1000 nM"}

====

Documented pKd across a set of molecules
assay-system: ShhN protein (Homo sapiens, UniProt Q15465)
Construct: auto-cleavage of full length Shh into an active 20 kD N-terminal fragment (ShhN); purchased R&D Systems
Sequence (Q15465 24-197 limits assumed, species assumed): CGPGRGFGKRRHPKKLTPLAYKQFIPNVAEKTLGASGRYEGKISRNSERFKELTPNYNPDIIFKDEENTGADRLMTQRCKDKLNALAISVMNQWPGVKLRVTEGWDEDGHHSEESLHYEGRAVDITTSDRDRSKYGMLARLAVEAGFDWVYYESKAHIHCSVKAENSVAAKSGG
experiment-summary: Surface Plasmon Resonance (SPR) protein binding assay on immobilized ShhN
protocol-conditions: SPR, Biacore T100, ShhN immobilized on CM4 chip, 25° C., compound 0.78 μM-25 μM; read-out: KD
pKd: −log10 of the molar value.
recorded-metric: pKd

{"substance-smiles": "O=C(C[C@@H]1C/C=C/CCC(=O)N[C@H](Cc2ccccc2)COC1=O)NCc1ccc(Cl)cc1", "assay-system": "ShhN protein (Homo sapiens, UniProt Q15465)", "assay-value": "4.00 to 6.00"}
{"substance-smiles": "C[C@@H]1CCCCCC(=O)OC[C@@H]2CCCN2C1=O", "assay-system": "ShhN protein (Homo sapiens, UniProt Q15465)", "assay-value": "4.00 to 6.00"}
{"substance-smiles": "CC(C)[C@@H]1COC(=O)[C@H](CC(=O)NCc2ccc(Cl)cc2)C/C=C/CCC(=O)N1", "assay-system": "ShhN protein (Homo sapiens, UniProt Q15465)", "assay-value": "6.00 to 7.00"}
{"substance-smiles": "CC(=O)N[C@H]1C/C=C/C[C@@H](CC(=O)NCc2ccc(Cl)cc2)C(=O)N(C)[C@@H](C)[C@@H](c2ccccc2)OC1=O", "assay-system": "ShhN protein (Homo sapiens, UniProt Q15465)", "assay-value": "> 7.00"}
{"substance-smiles": "CC(C)N[C@H]1C/C=C/C[C@@H](CC(=O)NCc2ccc(Cl)cc2)C(=O)NC[C@@H](c2ccccc2)OC1=O", "assay-system": "ShhN protein (Homo sapiens, UniProt Q15465)", "assay-value": "6.00 to 7.00"}
{"substance-smiles": "O=C(C[C@@H]1C/C=C/CCC(=O)O[C@H](c2ccccc2)CNC1=O)NCc1cccc(Cl)c1", "assay-system": "ShhN protein (Homo sapiens, UniProt Q15465)", "assay-value": "< 4.00"}
{"substance-smiles": "C[C@@H]1C/C=C/CCC(=O)OC[C@@H]2CCCN2C1=O", "assay-system": "ShhN protein (Homo sapiens, UniProt Q15465)", "assay-value": "4.00 to 6.00"}
{"substance-smiles": "O=C(C[C@@H]1C/C=C/C[C@H](O)C(=O)O[C@H](c2ccccc2)CNC1=O)NCc1ccc(Cl)cc1", "assay-system": "ShhN protein (Homo sapiens, UniProt Q15465)", "assay-value": "> 7.00"}

====

assay-system: ShhN protein (Homo sapiens, UniProt Q15465)
Construct: auto-cleavage of full length Shh into an active 20 kD N-terminal fragment (ShhN); purchased R&D Systems
experiment-summary: Surface Plasmon Resonance (SPR) protein binding assay on immobilized ShhN
protocol-conditions: SPR, Biacore T100, ShhN immobilized on CM4 chip, 25° C., compound 0.78 μM-25 μM; read-out: KD
pKd: −log10 of the molar value.
Below, each of the compounds is paired with its reported pKd value.
recorded-metric: pKd

{"compound": "O=C1CC/C=C/C[C@@H](CC(=O)N2CCOCC2)C(=O)NC[C@@H](c2ccccc2)O1 [Example DK]", "recorded-metric": "pKd", "assay-value": "> 7.00"}
{"compound": "CC(=O)N[C@H]1C/C=C/C[C@@H](CC(=O)NCc2ccc(Cl)cc2)C(=O)NC[C@@H](c2ccccc2)OC1=O [Example DJ]", "recorded-metric": "pKd", "assay-value": "> 7.00"}
{"compound": "O=C1CC/C=C/C[C@@H](CC(=O)N2CCN(c3ncccn3)CC2)C(=O)NC[C@@H](c2ccccc2)O1 [EU]", "recorded-metric": "pKd", "assay-value": "4.00 to 6.00"}
{"compound": "CC1(C)O[C@H]2CCC(=O)O[C@H](c3ccccc3)CNC(=O)[C@H](CC(=O)NCc3ccc(Cl)cc3)C[C@@H]2O1 [Example I]", "recorded-metric": "pKd", "assay-value": "> 7.00"}

====

assay-system: ShhN protein (Homo sapiens)
Construct: auto-cleavage of full length Shh into an active 20 kD N-terminal fragment (ShhN); purchased R&D Systems
experiment-summary: Surface Plasmon Resonance (SPR) protein binding assay on immobilized ShhN
protocol-conditions: SPR, Biacore T100, ShhN immobilized on CM4 chip, 25° C., compound 0.78 μM-25 μM; read-out: KD
pKd: −log10 of the molar value.
Entries annotated with measured pKd
recorded-metric: pKd

{"substance-smiles": "C[C@@H]1CCCCCC(=O)N[C@H](c2ccccc2)COC1=O", "assay-value": "> 7.00"}
{"substance-smiles": "CN1C[C@@H](c2ccccc2)OC(=O)CC/C=C/C[C@@H](CC(=O)NCC2CCOCC2)C1=O", "assay-value": "4.00 to 6.00"}
{"substance-smiles": "O=C(C[C@@H]1C[C@H](O)[C@@H](O)CCC(=O)OC[C@@H]2CCCN2C1=O)NCc1ccc(Cl)cc1", "assay-value": "6.00 to 7.00"}
{"substance-smiles": "O=C(C[C@@H]1C/C=C/CCC(=O)N[C@H](c2ccc(F)cc2)COC1=O)NCc1ccc(Cl)cc1", "assay-value": "6.00 to 7.00"}
{"substance-smiles": "C[C@@H]1C/C=C/C[C@@H](CC(=O)NCc2ccc(Cl)cc2)C(=O)NC[C@@H](c2ccccc2)OC1=O", "assay-value": "6.00 to 7.00"}
{"substance-smiles": "C[C@H]1C/C=C\\C[C@@H](CC(=O)NCc2ccc(Cl)cc2)C(=O)OC[C@@H](c2ccccc2)NC1=O", "assay-value": "< 4.00"}
{"substance-smiles": "O=C(C[C@@H]1C/C=C/CCC(=O)N[C@@H](c2ccccc2)COC1=O)NCc1ccc(Cl)cc1", "assay-value": "> 7.00"}
{"substance-smiles": "C[C@@H]1C/C=C/C[C@@H](N)C(=O)N[C@H](c2ccccc2)COC1=O", "assay-value": "6.00 to 7.00"}
